- Tested on: HL-60
- TEST METHOD NOTES: NCI tumour cell line growth inhibition, 48 h
Calls of active or inactive are those of the source. Rule as the data show it: active = GI50 up to about 1.1 µM and inactive = higher.
READOUT KIND: GI50

// Input: `CNC(=O)CN(CC(N)=O)C(=O)NC` . Output its GI50 only.
> 100 µM (inactive)

Look up and report measured GI50 for this entry: `O=[PH](O)c1ccsc1`
> 100 µM (inactive)

Supply GI50 value. Item: O=C1c2ccccc2CC12Cc1ccc3c(c1C2=O)CCCC3 (centres undefined)
16.8 µM (inactive)

Supply GI50 value. Item: `O=C(Nc1ccc(Cl)c(Cl)c1)OCCN1c2ccccc2Sc2ccccc21`
> 10 µM (inactive)

----------
Could you please report measured GI50 for the items listed next?
- Test system: OVCAR-4
- TEST METHOD NOTES: NCI tumour cell line growth inhibition, 48 h
Active and inactive are the calls of the source. Cut-off read from the data, not from the text of the source: active = GI50 up to about 1.1 µM and inactive = higher.

Report value only: GI50, OVCAR-4, `O=C1/C(=C\c2ccc(Cl)cc2Cl)Sc2scc(-c3ccc(O)c(O)c3)[n+]21`
13.4 µM (inactive)

For OVCAR-4, give the measured GI50 of the entry Nc1cccc(C2CCCc3c2[nH]c2ccccc32)c1 (stereo not drawn)
25.5 µM (inactive)

Enter GI50 (test system OVCAR-4) for COc1ccc(-c2cc(-c3ccco3)c(C#N)c(=O)n2C2OC(OC(=O)c3ccccc3)C(OC(=O)c3ccccc3)C2OC(=O)c2ccccc2)cc1 (stereo not drawn)
> 100 µM (inactive)

Retrieve GI50 on OVCAR-4; query `CC(=O)/N=C1\C=C(NC(C)=O)C(=O)c2ccccc21`
1.66 µM (inactive)

Supply GI50 measured with OVCAR-4 for `O=c1[nH]nc(Cc2c[nH]c3ccccc23)o1` .
> 100 µM (inactive)

# assay system OVCAR-4: give GI50 of CC1(C)Oc2ccc3ccc(=O)oc3c2C(O)C1O (stereo not drawn)
39.5 µM (inactive)

Using OVCAR-4 as the test system, report measured GI50 of `COc1ccccc1NC(=O)/C(Cc1nc2ccc([N+](=O)[O-])cc2nc1O)=N\NC(=O)C[N+](C)(C)C` .
> 100 µM (inactive)

Find the measured GI50 of `O=C(O)CCSC(=O)Nc1cccc([N+](=O)[O-])c1` with OVCAR-4 as test system.
60.8 µM (inactive)

State measured GI50 of the molecule `N#C/C=C\c1ccc(-c2cc(C(F)(F)F)cc(C(F)(F)F)c2)o1` with OVCAR-4.
91.8 µM (inactive)

Tell me its GI50 on OVCAR-4: CCOC(=O)C1Sc2ccccc2N=C1C (stereo not drawn)
> 100 µM (inactive)

GET GI50 where system = OVCAR-4 and item = COc1ccc(C(OCC2OC(n3ccc(NC(=O)c4ccccc4)nc3=O)C(O)C2O)(c2ccccc2)c2ccccc2)cc1 (stereo not drawn)
2.67 µM (inactive)

Send back OVCAR-4 GI50 of `O=c1[nH]cc(-c2c[nH]c3ccccc23)nc1-c1c[nH]c2ccccc12` only.
6.58 µM (inactive)

Give reported GI50 for COC(=O)C12C3C4C5(C(=O)OC)C(C1C35C(=O)N(C(C)C)C(C)C)C42C(=O)N(C(C)C)C(C)C (stereo not drawn) (OVCAR-4)
> 35.6 µM (inactive)

State GI50 on OVCAR-4. Entry: O=[N+]([O-])c1ccc2c(c1)nc(Cc1ccccc1)n2C[C@@H]1CCCN2CCCCC12 (stereo partly drawn)
27.4 µM (inactive)

Lab note: OVCAR-4 assay, enter GI50 for O=C1c2c(Br)sc(Br)c2C(NC(=O)C(F)(F)F)C1O (stereo not drawn) here
19.9 µM (inactive)

Report measured GI50 on OVCAR-4; entry: `Nc1ccccc1C(=O)/C=C/c1ccccc1O`
48.6 µM (inactive)

Name the value of GI50 reported for COc1ccc(/N=N/C(=O)NC(CC(C)C)C(=O)NC(CC(C)C)C(=O)O)cc1 (stereo not drawn) when tested on OVCAR-4.
> 100 µM (inactive)

Recall the reported GI50 of `CN(C)c1ccc(/C=C2\N=C(c3ccc(N)cc3)OC2=O)cc1` when tested on OVCAR-4.
> 100 µM (inactive)

Name the recorded GI50 of CC(=O)OCC1OC(n2c(C)c(C)cc(C#N)c2=S)C(OC(C)=O)C(OC(C)=O)C1OC(C)=O (stereo not drawn) , assay system OVCAR-4.
> 100 µM (inactive)

Please respond with reported GI50 (system OVCAR-4) for `COc1ccc(-n2nnc3c(C#N)c(-c4ccccc4)c(C)n3c2=O)cc1` .
28.8 µM (inactive)

GET GI50 | system: OVCAR-4 | item: `COC(=O)/C=C\C(C#N)(C#N)/N=C/c1ccccc1`
4.22 µM (inactive)

Provide the reported GI50 (system: OVCAR-4) for `CN(C)CN(C)c1nc(N(C)C)nc(N(C)C)n1`
> 100 µM (inactive)

Write down measured GI50 (OVCAR-4) for this molecule. `Cc1ccc(NCC(=O)N2CC(=O)Nc3ccccc32)c(C)c1`
> 100 µM (inactive)

Look up and report measured GI50 (OVCAR-4) for the following molecule: `CC(=O)C(CN1C(=O)c2ccccc2C1=O)C(C)=O`
> 100 µM (inactive)

Give OVCAR-4 GI50 for the following molecule: `S=C1CSc2c(cnc3ccccc23)N1`
> 100 µM (inactive)

Fetch value of GI50 on OVCAR-4 for `CC1(C)[C@H]2CC[C@]1(C)[C@H](OC(=O)NNC(=O)O[C@@H]1C[C@@H]3CC[C@@]1(C)C3(C)C)C2` .
11.4 µM (inactive)

Provide GI50, tested on OVCAR-4, for CC(C)(C)[Si](OC1CC(n2cnc3c(N)ncnc32)OC1CO)(c1ccccc1)c1ccccc1 (stereo not drawn) .
15 µM (inactive)

Report measured GI50 on OVCAR-4; entry: `Cc1ccc(CS(=O)(=O)C/N=C2\Sc3ccccc3N\C2=C/C(=O)c2ccc(Cl)cc2)cc1`
5.47 µM (inactive)

Give GI50 for CN1CCCOC(c2ccc(Cl)cc2)O1 (stereo not drawn) tested on OVCAR-4.
> 100 µM (inactive)

Report value only: GI50, OVCAR-4, `N#CCCN(CCC#N)CCN(CCN(CCC#N)CCC#N)CCN(CCC#N)CCC#N`
> 100 µM (inactive)

Enter GI50 (test system OVCAR-4) for `CCCCCCCCCC(=O)CC(=O)c1c(O)cc(O)cc1O`
16.3 µM (inactive)

With OVCAR-4 as the test system, provide measured GI50 for this molecule: `S=c1sc2c(Cl)ncnc2n1-c1ccccc1`
18.8 µM (inactive)

# return GI50 for `CCN(CC)CCOc1ccc(/C=C(\C#N)c2ccc(OCCN(CC)CC)cc2)cc1` , test system: OVCAR-4
37.3 µM (inactive)

Report the value of GI50 obtained on OVCAR-4 for `Cc1ccc(C(=O)N/N=C(\N=N\c2cccc(Cl)c2)c2ccc(N(CCC#N)CCC#N)cc2C)cc1` .
> 100 µM (inactive)

Supply GI50 measured with OVCAR-4 for `CCCCCCCCCCCCCCCCc1c(C(=O)OC)[nH]c(=S)[nH]c1=O` .
> 50 µM (inactive)

Name the recorded GI50 of `COc1ccccc1/C=N/C12CC3CC(CC(C3)C1)C2` , assay system OVCAR-4.
> 100 µM (inactive)

Tell me its GI50 on OVCAR-4: `O=C(COc1ccc(OCC(=O)N2C(=O)CN(c3ccccc3)C2=S)cc1)N1C(=O)CN(c2ccccc2)C1=S`
31.5 µM (inactive)

Lab note: OVCAR-4 assay, enter GI50 for `Cc1cc(N=C2C=C(Br)C(=O)C(Br)=C2)cc(CN(CC(=O)O)CC(=O)O)c1O` here
> 100 µM (inactive)

State the measured GI50 (OVCAR-4) of `CCOC(=O)c1cccc(/N=N/Nc2cccc(C(=O)OCC)c2)c1`
20.9 µM (inactive)

Find GI50 for `NC(=O)NN=C(CS)CS` on OVCAR-4 and write it down.
25.4 µM (inactive)

Please respond with reported GI50 (system OVCAR-4) for `O=C(c1ccccc1)c1nnc(C(=O)c2ccccc2)nn1` .
> 344 µM (inactive)

Report GI50 under test system OVCAR-4 for `C/C(=N\NC(=S)N1CCN(c2ccccn2)CC1)c1ncccn1` .
0.205 µM (active)

Recall the reported GI50 of CCCCCCCCCCCCP(=O)(O)OCC(N)C(=O)O (stereo not drawn) on OVCAR-4 and write it down.
76.2 µM (inactive)

----------
- Test system: HL-60
- TEST METHOD NOTES: NCI tumour cell line growth inhibition, 48 h
Activity calls are given as the source filed them. No stated cut-off is given here; in the data, active = GI50 up to about 1.1 µM and inactive = higher.
So I've got a bunch of compounds here, and I need their GI50 values.

# return recorded GI50 for entry `COC(=O)/C=C\C(C#N)(C#N)/N=C/c1ccccc1`
2.25 µM (inactive)

Hello, please tell me recorded GI50 for this one: `COc1cc(Nc2nc3cc(C(F)(F)F)ccc3nc2-c2ccccc2)cc(OC)c1OC`
39.3 µM (inactive)

Look up and report measured GI50 for this entry: CC(=O)NC(Cc1ccsc1)C(=O)O (stereo unspecified)
> 100 µM (inactive)

State its GI50: `N#Cc1c2c([nH]c(=O)c1C#N)CCCC2`
> 100 µM (inactive)

Consider the compound `CCCCOP(=O)(OCCCC)/C(C#N)=C/c1ccco1` and give its recorded GI50.
22.8 µM (inactive)

Recall and state the measured GI50 for `CCCCCc1nnc(NS(=O)(=O)c2ccc(NC(=O)OCC(C)C)cc2)s1` .
31.2 µM (inactive)
